Assay: physchem
Settings: buffer, pH 7.4
Description: Lipophilicity, logD of compound at pH 7.4
assayMetric: logD

1. Nc1cc(C(F)F)c2[nH]c(CN3C(=O)c4cc(F)ccc4[C@]34CCN(Cc3ccc(F)cc3)C4=O)cc2n1    2.9
2. O=C(NCc1ccc(F)cc1)C1c2ccc(F)cc2C(=O)N1Cc1cc2ncccc2[nH]1 (stereo not drawn)    3.4
3. COc1cc(N)nc2cc(CN3C(=O)c4cc(F)ccc4[C@]34CCN(Cc3ccc(F)cc3)C4=O)[nH]c12    1.8
4. CN(Cc1ccc(F)cc1)C(=O)C1c2ccccc2C(=O)N1Cc1cnc(NC(=N)N)s1 (stereo not drawn)    2
5. N#Cc1ccc2c(c1)C(C(=O)NCc1ccc(F)cc1)N(Cc1cnc(NC(=N)N)s1)C2=O (stereo not drawn)    2.1

A: Nc1ccc2cc(CN3C(=O)c4cc(F)ccc4[C@]34CCN(Cc3ccc(F)cc3)C4=O)[nH]c2n1
B: N=C(N)Nc1cc(CN2C(=O)c3ccccc3C2C(=O)NCc2ccc(F)cc2)ccn1 (stereo not drawn)
// query Compare the recorded logD of A and B ; state which is larger. Let me know the label of the one you choose.
// result A
(A: 2.5, B: 0.9)

* * *

Assay: Intrinsic clearance in rat hepatocytes assessed per million cells
Type: ADME, cell-based, Hepatocyte
Settings: read-out: CLH
assayMetric: hepatocyte CLint (µL/min/1e6 cells)

1. O=C1c2cc(F)ccc2[C@]2(CCN(Cc3ccc(F)cc3)C2=O)N1Cc1cc2ccncc2[nH]1    6

A: Nc1cc(C(F)F)c2[nH]c(CN3C(=O)c4cc(F)ccc4[C@]34CCN(Cc3ccc(F)cc3)C4=O)cc2n1
B: O=C(NCc1ccc(F)cc1)C1c2ccccc2C(=O)N1Cc1cc2cccnc2[nH]1 (stereo not drawn)
C: N=C(N)Nc1nnc(CN2C(=O)c3ccccc3C2C(=O)NCc2ccc(F)cc2)s1 (stereo not drawn)
D: COc1cc(N)nc2cc(CN3C(=O)c4cc(F)ccc4[C@]34CCN(Cc3ccc(F)cc3)C4=O)[nH]c12
// query Could you please order the items by hepatocyte CLint, going from the lowest number to the highest? Quick reminder: the answer is the labels in the order asked.
// result D, A, C, B
(D: 7 µL/min/1e6 cells, A: 15 µL/min/1e6 cells, C: 23 µL/min/1e6 cells, B: 131 µL/min/1e6 cells)

* * *

IC50 data for Protein arginine N-methyltransferase 5 (Homo sapiens, UniProt O14744) follow.
assayMetric: IC50 (µM)

Study these solved cases before continuing.
1. O=C1c2cc(F)ccc2[C@]2(CCN(Cc3ccc(F)cc3)C2=O)N1Cc1cc2ccncc2[nH]1    6.4
2. Nc1ccc2[nH]c(CN3C(=O)c4cc(F)ccc4[C@]34CCN(Cc3ccc(F)cc3)C4=O)nc2n1    1.3

1: COc1cc(N)nc2cc(CN3C(=O)c4cc(F)ccc4[C@]34CCN(Cc3ccc(F)cc3)C4=O)[nH]c12
2: Nc1ccc2ncc(CN3C(=O)c4cc(F)ccc4[C@]34CCN(Cc3ccc(F)cc3)C4=O)cc2n1
// query Between the entries labeled 1 and 2 , whose measured IC50 is lower? State your choice using its label.
// result 1

* * *

Assay: in vitro
Details: human, Caco-2
Description: Apparent permeability across apical to basal side of human Caco-2 cells at 10 uM
assayMetric: Papp A→B at 10 µM (×10⁻⁶ cm/s)

Below, each entry is followed by its recorded Papp A→B at 10 µM result.
1. Nc1ccc2ncc(CN3C(=O)c4cc(F)ccc4[C@]34CCN(Cc3ccc(F)cc3)C4=O)cc2n1    27
2. O=C1c2cc(F)ccc2[C@]2(CCN(Cc3ccc(F)cc3)C2=O)N1Cc1cc2cccnc2[nH]1    29
3. Nc1cc(C(F)F)c2[nH]c(CN3C(=O)c4cc(F)ccc4[C@]34CCN(Cc3ccc(F)cc3)C4=O)cc2n1    56

a: CNC(=N)Nc1ncc(CN2C(=O)c3cc(F)ccc3C2C(=O)NCc2ccc(F)cc2)s1 (stereo not given)
b: Nc1ccc2oc(CN3C(=O)c4cc(F)ccc4[C@]34CCN(Cc3ccc(F)cc3)C4=O)cc2n1
// query Out of a and b , name the one with the higher Papp A→B at 10 µM. Could you answer with the label of the item you picked?
// result b
(b: 72 ×10⁻⁶ cm/s, a: 14 ×10⁻⁶ cm/s)

Numbers sourced from ChEMBL document CHEMBL5576120.
